system: Human immunodeficiency virus 1; experiment: Antiviral activity against wild type HIV-1 IIIB harboring reverse transcriptase […] mutant infected in human MT4 cells assessed as protection against virus-induced cytopathic effect incubated for 5 days by MTT assay; format: functional, organism-based; conditions: Human immunodeficiency virus 1, IIIB, MT4, 120 h
metric-name: pEC50
Reminder that pEC50 is minus the log10 of a molar concentration.

Solved cases below.
Cc1cc(-c2ccc(C#N)cc2)cc(C)c1Oc1nc(Nc2ccc(C#N)cc2)ncc1C(=O)NC1CCCC1 :: 5.75
CNC(=O)c1cnc(Nc2ccc(C#N)cc2)nc1Oc1c(C)cc(-c2ccc(C#N)cc2)cc1C :: 8.05
Cc1cc(-c2ccc(C#N)cc2)cc(C)c1Oc1nc(Nc2ccc(C#N)cc2)ncc1C(=O)NC1CC1 :: 7.29
Cc1cc(-c2ccc(C#N)cc2)cc(C)c1Oc1nc(Nc2ccc(C#N)cc2)ncc1C(=O)NCCCO :: 7.82
Cc1ccnc2c1NC(=O)c1cccnc1N2C1CC1 :: 5.68

What value of pEC50 has been reported for the following compound? "COCCNC(=O)c1cnc(Nc2ccc(C#N)cc2)nc1Oc1c(C)cc(-c2ccc(C#N)cc2)cc1C" 7.13

Also, "Cc1cc(C#N)cc(C)c1Oc1nc(Nc2ccc(C#N)cc2)nc(N)c1Br" please. 8.15

Also, "Cc1cc(-c2ccc(C#N)cc2)cc(C)c1Oc1nc(Nc2ccc(C#N)cc2)ncc1C(=O)NC(C)C" please. 6.84

* * *

test: Tmax in Sprague-Dawley rat at 10 mg/kg, po measured upto 24 hrs by LC-MS/MS analysis; format: ADME, organism-based; details: in vivo
metric-name: Tmax (h)
// note: answer is a bare numeric in h

What value of Tmax has been reported for the following compound? "CONC(=O)c1cnc(Nc2ccc(C#N)cc2)nc1Oc1c(C)cc(-c2ccc(C#N)cc2)cc1C" 2

* * *

Measured Ratio EC50 values are reported for all entries that follow.
experiment: Resistant factor, ratio of EC50 for antiviral activity against HIV-1 IIIB harboring reverse transcriptase Y181C mutant to EC50 for antiviral activity against wild type HIV-1 IIIB; format: functional

Cc1cc(-c2ccc(C#N)cc2)ccc1Oc1nc(Nc2ccc(C#N)cc2)ncc1C(N)=O :: 140
Cc1cc(-c2ccc(C#N)cc2)cc(C)c1Oc1nc(Nc2ccc(C#N)cc2)ncc1C(=O)NCCCO :: 9.1
COCCNC(=O)c1cnc(Nc2ccc(C#N)cc2)nc1Oc1c(C)cc(-c2ccc(C#N)cc2)cc1C :: 10
Cc1cc(-c2ccc(C#N)cc2)cc(Cl)c1Oc1nc(Nc2ccc(C#N)cc2)ncc1C(N)=O :: 1.1

Query molecule follows.
What value of Ratio EC50 has been reported for the following molecule? "C#CCNC(=O)c1cnc(Nc2ccc(C#N)cc2)nc1Oc1c(C)cc(-c2ccc(C#N)cc2)cc1C" 5.5

* * *

target: Cytochrome P450 2C9 (Homo sapiens)
Sequence (P11712 whole entry): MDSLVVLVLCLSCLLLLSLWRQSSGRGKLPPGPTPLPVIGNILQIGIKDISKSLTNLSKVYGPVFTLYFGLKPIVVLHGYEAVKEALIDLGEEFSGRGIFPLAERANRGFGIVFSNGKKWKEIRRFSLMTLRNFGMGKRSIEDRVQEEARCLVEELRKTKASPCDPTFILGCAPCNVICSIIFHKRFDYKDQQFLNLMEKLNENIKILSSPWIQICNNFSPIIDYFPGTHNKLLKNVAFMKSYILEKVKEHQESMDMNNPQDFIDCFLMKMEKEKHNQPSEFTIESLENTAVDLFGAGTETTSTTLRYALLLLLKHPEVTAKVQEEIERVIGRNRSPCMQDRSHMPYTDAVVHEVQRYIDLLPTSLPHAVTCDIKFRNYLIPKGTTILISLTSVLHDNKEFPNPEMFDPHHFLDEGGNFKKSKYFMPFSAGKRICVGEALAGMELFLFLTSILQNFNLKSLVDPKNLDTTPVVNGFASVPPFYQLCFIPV
metric-name: IC50 (µM)
// note: answer is a bare numeric in µM

What value of IC50 has been reported for the following molecule? "CONC(=O)c1cnc(Nc2ccc(C#N)cc2)nc1Oc1c(C)cc(-c2ccc(C#N)cc2)cc1C" 18.5

* * *

test: Resistant factor, ratio of EC50 for antiviral activity against HIV-1 IIIB harboring reverse transcriptase E138K mutant to EC50 for antiviral activity against wild type HIV-1 IIIB; assay type: functional
metric-name: Ratio EC50
Would you mind answering with just the numeric figure?

CCONC(=O)c1cnc(Nc2ccc(C#N)cc2)nc1Oc1c(C)cc(-c2ccc(C#N)cc2)cc1C :: 1.3

What value of Ratio EC50 has been reported for the following molecule? "N#Cc1ccc(Nc2ncc(C(N)=O)c(Oc3c(F)cc(-c4ccc(C#N)cc4)cc3F)n2)cc1" 5.3

Also, "Cc1cc(-c2ccc(C#N)cc2)cc(C)c1Oc1nc(Nc2ccc(C#N)cc2)ncc1C(=O)NC1CCC1" please. 2.6

Also, "Cc1cc(-c2ccc(C#N)cc2)cc(C)c1Oc1nc(Nc2ccc(C#N)cc2)ncc1C(=O)NCCCO" please. 0.9

Also, "CNC(=O)c1cnc(Nc2ccc(C#N)cc2)nc1Oc1c(C)cc(-c2ccc(C#N)cc2)cc1C" please. 1.8

* * *

experiment: Cytotoxicity against human MT4 cells assessed as reduction in cell viability incubated for 5 days by MTT assay; assay type: toxicity, cell-based; details: time 5 day
Measured CC50 at 120 h values are reported for all entries that follow.

N#Cc1ccc(Nc2ncc(C(N)=O)c(Oc3c(F)cc(-c4ccc(C#N)cc4)cc3F)n2)cc1 :: > 53.4 µM
Cc1cc(-c2ccc(C#N)cc2)cc(C)c1Oc1nc(Nc2ccc(C#N)cc2)ncc1C(=O)NC(C)C :: 64.7 µM

What value of CC50 at 120 h has been reported for the following compound? "Cc1cc(-c2ccc(C#N)cc2)cc(C)c1Oc1nc(Nc2ccc(C#N)cc2)ncc1C(=O)NCC1CC1" 210 µM

Also, "CONC(=O)c1cnc(Nc2ccc(C#N)cc2)nc1Oc1c(C)cc(-c2ccc(C#N)cc2)cc1C" please. > 40.8 µM

Also, "Cc1cc(-c2ccc(C#N)cc2)cc(C)c1Oc1nc(Nc2ccc(C#N)cc2)ncc1C(=O)NCCO" please. > 39.6 µM

* * *

target: Voltage-gated inwardly rectifying potassium channel KCNH2 (Homo sapiens); test: Inhibition of hERG expressed in CHO cells by Qpatch assay
Sequence (Q12809 whole entry): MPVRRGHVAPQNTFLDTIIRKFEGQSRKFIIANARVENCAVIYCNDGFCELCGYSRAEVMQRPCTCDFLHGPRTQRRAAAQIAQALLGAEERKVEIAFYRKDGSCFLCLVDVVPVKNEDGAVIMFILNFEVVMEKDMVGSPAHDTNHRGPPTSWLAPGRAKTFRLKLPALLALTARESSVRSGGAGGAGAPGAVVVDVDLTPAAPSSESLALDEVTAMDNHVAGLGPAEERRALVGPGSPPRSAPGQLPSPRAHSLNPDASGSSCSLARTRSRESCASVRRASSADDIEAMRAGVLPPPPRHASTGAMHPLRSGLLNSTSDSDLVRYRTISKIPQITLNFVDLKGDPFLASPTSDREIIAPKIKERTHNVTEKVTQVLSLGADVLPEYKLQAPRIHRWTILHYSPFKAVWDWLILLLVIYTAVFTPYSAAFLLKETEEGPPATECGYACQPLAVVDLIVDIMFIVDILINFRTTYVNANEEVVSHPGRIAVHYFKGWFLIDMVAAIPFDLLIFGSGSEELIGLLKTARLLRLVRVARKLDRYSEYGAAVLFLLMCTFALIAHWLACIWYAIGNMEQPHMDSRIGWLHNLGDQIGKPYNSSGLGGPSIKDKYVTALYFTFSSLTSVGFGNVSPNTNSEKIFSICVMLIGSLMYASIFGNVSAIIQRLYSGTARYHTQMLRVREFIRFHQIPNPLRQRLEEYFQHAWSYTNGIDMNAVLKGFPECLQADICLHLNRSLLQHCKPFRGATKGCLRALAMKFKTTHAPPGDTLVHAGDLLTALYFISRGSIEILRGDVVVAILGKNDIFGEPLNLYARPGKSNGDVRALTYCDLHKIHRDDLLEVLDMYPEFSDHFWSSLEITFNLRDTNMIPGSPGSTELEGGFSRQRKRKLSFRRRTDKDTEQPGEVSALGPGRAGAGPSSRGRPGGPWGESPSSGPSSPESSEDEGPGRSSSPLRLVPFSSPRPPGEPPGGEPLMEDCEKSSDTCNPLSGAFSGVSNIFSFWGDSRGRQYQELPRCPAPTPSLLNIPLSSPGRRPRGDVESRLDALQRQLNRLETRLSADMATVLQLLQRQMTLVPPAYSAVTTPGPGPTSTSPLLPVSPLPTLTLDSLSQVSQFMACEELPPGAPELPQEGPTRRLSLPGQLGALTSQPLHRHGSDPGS
metric-name: IC50

What value of IC50 has been reported for the following compound? "CONC(=O)c1cnc(Nc2ccc(C#N)cc2)nc1Oc1c(C)cc(-c2ccc(C#N)cc2)cc1C" > 40 µM

* * *

assay: MRT (0 to infinity) in Sprague-Dawley rat at 10 mg/kg, po measured upto 24 hrs by LC-MS/MS analysis; type: ADME, organism-based; details: in vivo
metric-name: MRT inf (h)
// note: answer is a bare numeric in h

What value of MRT inf has been reported for the following molecule? "CONC(=O)c1cnc(Nc2ccc(C#N)cc2)nc1Oc1c(C)cc(-c2ccc(C#N)cc2)cc1C" 5.21

* * *

Measured EC50 values are reported for all entries that follow.
tested on: Human immunodeficiency virus 1; experiment: Antiviral activity against wild type HIV-1 IIIB infected in human MT4 cells assessed as protection against virus-induced cytopathic effect incubated for 5 days by MTT assay; type: functional, organism-based; conditions: Human immunodeficiency virus 1, IIIB, MT4, 120 h
// note: answer is a bare numeric in nM

Solved cases below.
Cc1cc(-c2ccc(C#N)cc2)cc(C)c1Oc1nc(Nc2ccc(C#N)cc2)ncc1C(=O)NC1CCCC1 :: 145
COCCNC(=O)c1cnc(Nc2ccc(C#N)cc2)nc1Oc1c(C)cc(-c2ccc(C#N)cc2)cc1C :: 5
Cc1cc(-c2ccc(C#N)cc2)cc(C)c1Oc1nc(Nc2ccc(C#N)cc2)ncc1C(=O)NCCCO :: 5
CCONC(=O)c1cnc(Nc2ccc(C#N)cc2)nc1Oc1c(C)cc(-c2ccc(C#N)cc2)cc1C :: 5
Cc1cc(-c2ccc(C#N)cc2)cc(C)c1Oc1nc(Nc2ccc(C#N)cc2)ncc1C(N)=O :: 16
Cc1cc(-c2ccc(C#N)cc2)cc(Cl)c1Oc1nc(Nc2ccc(C#N)cc2)ncc1C(N)=O :: 33

What value of EC50 has been reported for the following molecule? "COc1cc(-c2ccc(C#N)cc2)ccc1Oc1nc(Nc2ccc(C#N)cc2)ncc1C(N)=O" 18

* * *

assay: Half life in Sprague-Dawley rat at 1 mg/kg, iv measured upto 24 hrs by LC-MS/MS analysis; type: ADME, organism-based; settings: in vivo
metric-name: half-life (h)
// note: answer is a bare numeric in h

What value of half-life has been reported for the following molecule? "CONC(=O)c1cnc(Nc2ccc(C#N)cc2)nc1Oc1c(C)cc(-c2ccc(C#N)cc2)cc1C" 3.66

* * *

Measured selectivity ratio values are reported for all entries that follow.
assay: Selectivity index, ratio of CC50 for cytotoxicity against human MT4 cells to EC50 for antiviral activity against wild type HIV-1 IIIB infected in human MT4 cells; assay type: toxicity, cell-based; conditions: read-out: Ratio CC50/EC50

N#Cc1ccc(Nc2ncc(C(N)=O)c(Oc3c(F)cc(-c4ccc(C#N)cc4)cc3F)n2)cc1 :: > 1780

What value of selectivity ratio has been reported for the following molecule? "Cc1cc(-c2ccc(C#N)cc2)cc(C)c1Oc1nc(Nc2ccc(C#N)cc2)ncc1C(=O)NC1CCC1" > 3750

Also, "CONC(=O)c1cnc(Nc2ccc(C#N)cc2)nc1Oc1c(C)cc(-c2ccc(C#N)cc2)cc1C" please. > 17400

Also, "CNC(=O)c1cnc(Nc2ccc(C#N)cc2)nc1Oc1c(C)cc(-c2ccc(C#N)cc2)cc1C" please. > 12700

Also, "COc1cc(-c2ccc(C#N)cc2)ccc1Oc1nc(Nc2ccc(C#N)cc2)ncc1C(N)=O" please. > 15300

* * *

test: Resistant factor, ratio of EC50 for antiviral activity against HIV-1 IIIB harboring reverse transcriptase E138K mutant to EC50 for antiviral activity against wild type HIV-1 IIIB; assay type: functional
Measured Ratio EC50 values are reported for all entries that follow.
Would you mind answering with just the numeric figure?

Solved cases below.
Cc1cc(-c2ccc(C#N)cc2)cc(C)c1Oc1nc(Nc2ccc(C#N)cc2)ncc1C(=O)NCCO :: 1.8
Cc1cc(-c2ccc(C#N)cc2)ccc1Oc1nc(Nc2ccc(C#N)cc2)ncc1C(N)=O :: 3.7

What value of Ratio EC50 has been reported for the following molecule? "Cc1cc(-c2ccc(C#N)cc2)cc(Cl)c1Oc1nc(Nc2ccc(C#N)cc2)ncc1C(N)=O" 0.2

Also, "CCNC(=O)c1cnc(Nc2ccc(C#N)cc2)nc1Oc1c(C)cc(-c2ccc(C#N)cc2)cc1C" please. 4.2

Also, "Cc1cc(-c2ccc(C#N)cc2)cc(C)c1Oc1nc(Nc2ccc(C#N)cc2)ncc1C(=O)NCC1CC1" please. 2.4
